Experiment: Half life in mouse hepatocytes at 3 uM after 180 mins by LC-MS/MS analysis
Format: ADME, cell-based, Hepatocyte
result type: half-life at 3 µM (h)
Give a bare numeral; the unit h is implied.

Looking for the measured half-life at 3 µM of `CN1CC[C@H](c2c(O)cc(O)c3c(=O)cc(/C=C/c4c(Cl)cccc4Cl)oc23)[C@H](O)C1` , can you help?
3.1

---

Assay: Pancreas to plasma partition coefficient, Kp of the compound in Sprague-Dawley rat at 30 mg/kg, po measured at 1 hr
Type: ADME, organism-based
Conditions: pancreas and plasma
result type: Kp at 1 h

Looking for the measured Kp at 1 h of `CN1CC[C@H](c2c(O)cc(O)c3c(=O)cc(/C=C/c4c(Cl)cccc4Cl)oc23)[C@H](O)C1` , can you help?
4.1

---

Assay: AUC (0 to t) in BALB/c mouse at 1 mg/kg, iv by LC-MS/MS analysis
Type: ADME, organism-based
Conditions: in vivo
result type: AUC(0-t) (µM·h)
Give a bare numeral; the unit µM·h is implied.

Looking for the measured AUC(0-t) of `CN1CC[C@H](c2c(O)cc(O)c3c(=O)cc(/C=C/c4c(Cl)cccc4Cl)oc23)[C@H](O)C1` , can you help?
0.525

---

Test system: alpha-1 acid glycoprotein
Assay: Binding affinity to alpha-1 acid glycoprotein (unknown origin)
Format: ADME
Conditions: human, read-out: PB (converted)
result type: fraction unbound

Looking for the measured fraction unbound of `CN1CC[C@H](c2c(O)cc(O)c3c(=O)cc(/C=C/c4c(Cl)cccc4Cl)oc23)[C@H](O)C1` , can you help?
0.017

---

Experiment: Half life in rat liver S9 fraction preincubated for 5 mins followed by NADPH addition measured after 30 mins by LC-MS/MS analysis
Assay type: ADME, tissue-based
result type: half-life (min)
Give a bare numeral; the unit min is implied.

Looking for the measured half-life of `CN1CC[C@H](c2c(O)cc(O)c3c(=O)cc(/C=C/c4c(Cl)cccc4Cl)oc23)[C@H](O)C1` , can you help?
31

---

Assay: Thermodynamic equilibrium solubility of compound in water after 5 hrs by shake flask method
Format: physicochemical
Conditions: read-out: Therm_solubility
result type: solubility thermodynamic at 5 h (µg/mL)
Give a bare numeral; the unit µg/mL is implied.

Looking for the measured solubility thermodynamic at 5 h of `CN1CC[C@H](c2c(O)cc(O)c3c(=O)cc(/C=C/c4c(Cl)cccc4Cl)oc23)[C@H](O)C1` , can you help?
20.3

---

Experiment: Pancreas to plasma partition coefficient, Kp of the compound in Sprague-Dawley rat at 30 mg/kg, po measured at 0.5 hrs
Format: ADME, organism-based
Settings: pancreas and plasma
result type: Kp at 0.5 h
Provide a numeric answer; units are not to be included.

Looking for the measured Kp at 0.5 h of `CN1CC[C@H](c2c(O)cc(O)c3c(=O)cc(/C=C/c4c(Cl)cccc4Cl)oc23)[C@H](O)C1` , can you help?
5.3

---

Target: CDK2/Cyclin A2 (Homo sapiens, UniProt P24941)
Assay: Inhibition of CDK2/cyclin A (unknown origin) using histone H1 as substrate after 30 mins in presence of [33P]-gamma-ATP by filter binding assay
pIC50: −log10 of the molar value.
Please mark T if the recorded pIC50 is equal to or greater than 6, and F if it falls below.

Consider the following illustrative entries.
                               input_smiles  classification
0  CN1CC[C@H](c2c(O)cc(O)c3c(=O)cc(/C=C/c4cccc(F)c4)oc23)[C@H](O)C1               T
1  CN1CC[C@H](c2c(O)cc(O)c3c(=O)cc(/C=C/c4c5ccccc5cc5ccccc45)oc23)[C@H](O)C1               F
2  CN1CC[C@H](c2c(O)cc(O)c3c(=O)cc(/C=C/c4cccc(Cl)c4)oc23)[C@H](O)C1               F
3  CN1CC[C@H](c2c(O)cc(O)c3c(=O)cc(/C=C/c4ccc(Cl)cc4)oc23)[C@H](O)C1               F

Here's the next entry for you.
Given `CN1CC[C@H](c2c(O)cc(O)c3c(=O)cc(/C=C/c4c(F)c(F)c(F)c(F)c4F)oc23)[C@H](O)C1` , state whether its pIC50 is at least 6.
T
